Source: a melting point compilation (Tetko et al.; mined from patent text by program, amines drawn as free bases though some values may be those of a salt)

PROPERTY MEASURED: melting point

Known results for molecules:
>>> reported("C[C@@H](S[C@H]1CO[C@H](c2ccccc2)OC1)[C@](O)(Cn1cncn1)c1ccc(F)cc1F")
"58 to 60 °C"
>>> reported("CCCN(CC(C)n1c(CCOC)nc2c(N)nc3ccccc3c21)C(N)=S (stereo not drawn)")
"172 to 173 °C"

Query string: Which melting point value is on record for "CN1CCCC1=NC(=O)Nc1cccc(C#N)c1" ?
Result string: 145 to 147 °C

* * *

PROPERTY MEASURED: melting point

Query string: Which melting point value is on record for "COC(=O)C(C)(C)S(=O)(=O)N1CCC(c2ccc(-n3ccc(OC)n3)c(C)c2)CC1" ?
Result string: 109 to 110 °C

Query string: Which melting point value is on record for "O=C(Nc1cccnc1NCc1ccc(Cl)cc1)c1ccccc1F" ?
Result string: 76 to 78 °C

Query string: Which melting point value is on record for "CN1Cc2c(c3cc(CCN4CCN(c5nsc6ccccc56)CC4)ccc3[nH]c2=O)C1" ?
Result string: 205 to 207 °C

Query string: Which melting point value is on record for CCC(O)C#Cc1ccc2c(=O)c(-c3ncc[nH]3)c(N)n(CC3CC3)c2n1 (stereo unspecified) ?
Result string: 252 °C

Query string: Which melting point value is on record for "CC(=O)Nc1ccc(C(C)(C)C)cc1CN(C)C1CCCCC1" ?
Result string: 111 to 112 °C

Query string: Which melting point value is on record for "CC(C)(C)Cc1c(CC(C)(C)C(=O)O)n(Cc2ccc(Cl)cc2)c2ccc(OCc3ccc4scc(Cl)c4n3)cc12" ?
Result string: 185 to 186 °C

Query string: Which melting point value is on record for "c1nc2c(cc1NC1=NCCN1)COCC2" ?
Result string: 201 to 202 °C

Query string: Which melting point value is on record for "CCCCC[C@H]1CC[C@H](CCC2CCC(c3ccc(O)cc3)(c3ccc(O)cc3)CC2)CC1" ?
Result string: 203 to 204 °C

Query string: Which melting point value is on record for "COc1cc(CCCOS(C)(=O)=O)ccc1OCc1coc(/C=C/c2ccccc2)n1" ?
Result string: 130 to 131 °C

Query string: Which melting point value is on record for "CC(C)Cn1c(=O)n(C)c(=O)c2c(CCC(=O)O)c(Cc3ccccc3C(F)(F)F)sc21" ?
Result string: 165 to 167 °C

Query string: Which melting point value is on record for "NC(=O)c1cc(-c2ccc3nnn(Cc4ccc5ncccc5c4)c3n2)ccc1F" ?
Result string: 262 to 264 °C

Query string: Which melting point value is on record for "C#CCNC(=O)N1CC(c2cccc(C(F)(F)F)c2)C1" ?
Result string: 121 °C

Query string: Which melting point value is on record for "O=C1c2cccc3cc4ccccc4c(c23)C(=O)N1CCCNCCCCNCCCN1C(=O)c2cccc3cc4ccccc4c(c23)C1=O" ?
Result string: 183 °C

Query string: Which melting point value is on record for CCOC(=O)C1=C(C)NC(COC(C)=O)=C(C(=O)OCC)C1c1ccccc1[N+](=O)[O-] (stereo unspecified) ?
Result string: 89 to 90 °C

Query string: Which melting point value is on record for "CCc1cc(OCc2ccc(-c3ccccc3-c3nnn(C(c4ccccc4)(c4ccccc4)c4ccccc4)n3)cc2)c2c(n1)CCN(C(C)=O)C2" ?
Result string: 97 to 98 °C

Query string: Which melting point value is on record for "O=C(O)c1cc(-c2ccc(Br)cc2)nc(-c2ccc(Br)cc2)c1" ?
Result string: 292 to 294 °C
